# Tested on: KRAS-mutant PDC multicell tumor spheroid viability;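 further: viability read after seven days of drug exposure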
# experimentDescription: Anticancer human tumor 521955-158-R2-J5-PDC patient-derived pancreatic carcinoma cell line growth inhibition [KRAS2]
# details: second compound 3.16 µM; first compound 3.16 µM; active compounds read low
Rule for this label: TRUE means viability, T/C is less than 20%; FALSE means viability, T/C is at least 20%.

compound="CC1COCCN1c1cc(-c2ccnn2C)c2ccnc(-c3ccn[nH]3)c2n1 (stereo not given) + CNCc1ccccc1-c1csc(C(C)Nc2nc(C)nc3cc(OC)c(OC)cc23)c1" assignedlabel=TRUE
compound="O=C(c1cc(Cc2n[nH]c(=O)c3ccccc23)ccc1F)N1CCN(C(=O)C2CC2)CC1 + COc1cc2nc(C)nc(NC(C)c3cc(N)cc(C(F)(F)F)c3)c2cc1OC1CCOC1" assignedlabel=FALSE
compound="CC1(C)CCC(CN2CCN(c3ccc(C(=O)NS(=O)(=O)c4ccc(NCC5CCOCC5)c([N+](=O)[O-])c4)c(Oc4cnc5[nH]ccc5c4)c3)CC2)=C(c2ccc(Cl)cc2)C1 + CC1OCC2(CCN(c3cnc(Sc4ccnc(N)c4Cl)c(N)n3)CC2)C1N" assignedlabel=FALSE
compound="Cn1nccc1Nc1nccc(-c2cc3c(s2)C(C)(C)N(CCN2CCOCC2)C3=O)n1 + COc1cc2nc(C)nc(NC(C)c3cc(N)cc(C(F)(F)F)c3)c2cc1OC1CCOC1" assignedlabel=TRUE
compound="CC1COCCN1c1cc(-c2ccnn2C)c2ccnc(-c3ccn[nH]3)c2n1 (stereo not given) + CC1OCC2(CCN(c3cnc(Sc4ccnc(N)c4Cl)c(N)n3)CC2)C1N" assignedlabel=TRUE
compound="CC(=O)OC12COC1CC(O)C1(C)C(=O)C(O)C3=C(C)C(OC(=O)C(O)C(NC(=O)OC(C)(C)C)c4ccccc4)CC(O)(C(OC(=O)c4ccccc4)C21)C3(C)C (stereo not given) + CNCc1ccccc1-c1csc(C(C)Nc2nc(C)nc3cc(OC)c(OC)cc23)c1" assignedlabel=TRUE
compound="COC(=O)c1ccc2c(C(=Nc3ccc(N(C)C(=O)CN4CCN(C)CC4)cc3)c3ccccc3)c(O)[nH]c2c1 + C=CC(=O)N1CCN(c2nc(OCC3CCCN3C)nc3c2CCN(c2cccc4cccc(C)c24)C3)CC1CC#N" assignedlabel=TRUE
compound="COc1cc2nccc(Oc3ccc(NC(=O)C4(C(=O)Nc5ccc(F)cc5)CC4)cc3)c2cc1OC + C=CC(=O)N1CCN(c2nc(=O)n(-c3c(C)ccnc3C(C)C)c3nc(-c4c(O)cccc4F)c(F)cc23)C(C)C1" assignedlabel=FALSE
compound="COc1cc(Nc2ncc3c(n2)-c2ccc(Cl)cc2C(c2c(F)cccc2OC)=NC3)ccc1C(=O)O + C=CC(=O)N1CCN(c2nc(=O)n(-c3c(C)ccnc3C(C)C)c3nc(-c4c(O)cccc4F)c(F)cc23)C(C)C1" assignedlabel=FALSE
